From: PubChem BioAssay (NCI)

system: SW-620 colon; test: NCI tumour cell line growth inhibition, 48 h
Recorded TGI by entry

molecule	TGI
COc1cc2c3c(n(CCN)c(=O)c2cc1OC)-c1cc2c(cc1C3=O)OCO2	2.29 µM
CC(C)CCCC(C)[C@H]1CC[C@H]2[C@@H]3CC[C@H]4C[C@@H](CCC=C(c5cc(Cl)c(O)c(C(=O)OC(C)(C)C)c5)c5cc(Cl)c(O)c(C(=O)OC(C)(C)C)c5)CC[C@]4(C)[C@H]3CC[C@]12C (stereo partly drawn)	> 50 µM
CCOC(=O)CCC(C(=O)OCC)n1nc2ccc(Nc3c(C)[n+]([O-])c4cc(Cl)ccc4[n+]3[O-])cc2n1 (stereo not drawn)	> 100 µM
CC1CCCC(C(O)CC2CC(=O)N(c3ccccc3)C(=O)C2)C1=O (stereo not drawn)	> 100 µM
Nc1ccc(C#Cc2cncnc2Nc2ccc(OCc3cccc(F)c3)c(Cl)c2)cc1	> 25 µM
COc1cc(-c2oc3c(OC)c(OC)cc(O)c3c(=O)c2OC)ccc1O	> 100 µM
Cc1ccc(S(=O)(=O)N2CCSCCSCCN(S(=O)(=O)c3ccc(C)cc3)CCN(S(=O)(=O)c3ccc(C)cc3)CC2)cc1	> 100 µM
Cn1c(-c2csc(-c3ccc(Cl)cc3)n2)n[nH]c1=S	> 100 µM

* * *

Recorded GI50 by entry
test system: HCC-2998 colon; experiment: NCI tumour cell line growth inhibition, 48 h

compound	target system	GI50
CC(CN)[C@@H]1CC[C@]2(CO)CC[C@]3(C)[C@H](CC[C@@H]4[C@@]5(C)CCC(NCCO)C(C)(C)[C@@H]5CC[C@]43C)[C@@H]12 (stereo partly drawn)	HCC-2998 colon	1.89 µM
Nc1nc2c(c3ncccc13)C(c1cccc(Cl)c1)Cc1ncccc1-2 (stereo not drawn)	HCC-2998 colon	2.77 µM
O=C1c2ccccc2S(=O)(=O)N1CSC(=S)N1CCCC1	HCC-2998 colon	> 53.4 µM
Cc1ccc(S(=O)(=O)Oc2ccc3c4c(c(=O)oc3c2)CCCCC4)cc1	HCC-2998 colon	> 100 µM
COc1cccc(/C=C/C(=O)c2ccc(Cl)cc2Cl)c1OC	HCC-2998 colon	14.5 µM
N#CC1C(=N)Cc2ccccc2-c2ccccc21 (stereo not drawn)	HCC-2998 colon	9.96 µM
CC[N+](CC)=c1ccc2nc3c(cc(NCc4ccccc4)c4ccccc43)oc-2c1	HCC-2998 colon	0.338 µM
CC(C)(C)OC(=O)NCCCCCCCCn1c2c(c3ccccc3c1=O)C(=O)c1ccccc1-2	HCC-2998 colon	> 50 µM
Nc1ccn([C@H]2C[C@@H](O)[C@@H](CO)S2)c(=O)n1	HCC-2998 colon	> 100 µM
O=S(=O)(NC(=S)Nc1ccccc1)c1ccc(N2N=C3c4ccccc4CC3C2c2cccs2)cc1 (stereo not drawn)	HCC-2998 colon	13.9 µM
COC(=O)c1ccc(=O)c2nc3/c(=C/O)c(O)cc(=O)c3[nH]c12	HCC-2998 colon	2.94 µM
CN1CCN(c2ccc(-c3cnc4c(-c5csc6ccccc56)cnn4c3)cc2)CC1	HCC-2998 colon	6 µM
C=C1C(=O)O[C@H]2[C@H]1CC/C(COC(=O)C(=O)c1c[nH]c3ccc(OC)cc13)=C\CC[C@@]1(C)O[C@@H]21	HCC-2998 colon	6.29 µM
COc1c2ccccc2c(O)c2c(=O)c(C(=O)O)cn(C)c12	HCC-2998 colon	> 100 µM
COc1cc2cc(Oc3ccc(NC(=O)Nc4ccccc4)cc3)c(C)nc2cc1OCCN1CCCCC1	HCC-2998 colon	5.62 µM
CS(=O)(=O)N1CCN(Cc2cc3nc(-c4cccc5[nH]ncc45)nc(N4CCOCC4)c3s2)CC1 (tested in a mixture with another compound)	HCC-2998 colon	1.31 µM
Nc1c(C(=O)c2cccc(OCCN3CCOCC3)c2)cnn1-c1ccc(F)cc1	HCC-2998 colon	> 25 µM
C=C(CNCCc1ccc(O)cc1)[C@@H]1CC[C@]2(CO)CC[C@]3(C)[C@H](CC[C@@H]4[C@@]5(C)CCC(=O)C(C)(C)[C@@H]5CC[C@]43C)[C@@H]12	HCC-2998 colon	1.64 µM
